# protocol_summary: Ratio of drug level in CD1 mouse brain to plasma at 30 mg/kg, po measured after 30 mins by mass spectrometry
# Format: ADME, organism-based
# test_context: read-out: BPR
reported_metric: Kp at 0.5 h

compound=COc1ccc2c3ccnc(C)c3n(CCCC(N)=O)c2c1 recorded_measurement=0.4

###

# protocol_summary: Ratio of drug level in brain to plasma in CD1 mouse at 30 mg/kg, po measured after 15 mins by mass spectrometry
# Format: ADME, organism-based
# test_context: read-out: BPR
reported_metric: Kp at […]

compound=COc1ccc2c3ccnc(C)c3n(CCCC(N)=O)c2c1 reported_metric="Kp at […]" recorded_measurement=0.2
